tested-system: BRAF V600E (Homo sapiens, UniProt P15056, V600E)
Construct: endogenous C-terminal HiBiT fusion tag on BRAF V600E allele; endogenous in cells; host or cells: A375 clone 1F10 (CRISPR-Cas9 knock-in of the HiBiT tag; parental A375 from ATCC)
Sequence (P15056 whole entry V600E, the tested form may be a part): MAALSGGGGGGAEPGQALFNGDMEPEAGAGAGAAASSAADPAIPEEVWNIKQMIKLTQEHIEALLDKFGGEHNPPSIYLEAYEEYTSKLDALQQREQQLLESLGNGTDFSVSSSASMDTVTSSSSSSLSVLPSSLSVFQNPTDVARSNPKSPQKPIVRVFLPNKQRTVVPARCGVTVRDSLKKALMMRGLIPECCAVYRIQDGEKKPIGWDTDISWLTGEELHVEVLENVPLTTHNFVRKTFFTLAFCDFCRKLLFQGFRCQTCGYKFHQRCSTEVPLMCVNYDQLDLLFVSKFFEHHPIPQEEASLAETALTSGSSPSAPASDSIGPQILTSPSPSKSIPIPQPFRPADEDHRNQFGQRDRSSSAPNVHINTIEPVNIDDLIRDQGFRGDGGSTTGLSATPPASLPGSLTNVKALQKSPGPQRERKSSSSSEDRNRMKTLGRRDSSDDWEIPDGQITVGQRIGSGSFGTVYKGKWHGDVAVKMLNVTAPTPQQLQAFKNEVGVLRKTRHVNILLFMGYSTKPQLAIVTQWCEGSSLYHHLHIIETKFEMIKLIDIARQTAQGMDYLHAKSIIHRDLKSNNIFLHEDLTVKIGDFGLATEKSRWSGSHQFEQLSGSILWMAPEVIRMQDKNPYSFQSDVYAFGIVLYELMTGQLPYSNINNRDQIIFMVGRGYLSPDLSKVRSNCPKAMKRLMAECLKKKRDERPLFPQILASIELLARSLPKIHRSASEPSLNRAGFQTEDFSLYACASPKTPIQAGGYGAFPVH
measurement-protocol: BRAF HiBiT degradation assay, C-terminal HiBiT-tagged BRAF V600E A375 cells (clone 1F10), Nano-Glo HiBiT Lytic assay
Assay type: cell-based
condition-context: A-375; A375 (BRAF V600E); percentage protein degraded at maximal compound effect relative to DMSO
assay-endpoint: Dmax

{"columns": ["compound", "assay-endpoint", "reported"],
 "data": [
  ["CCCS(=O)(=O)Nc1cccc(-c2nc(C3CCC4(CC3)CN(C(=O)CCCCCc3ccc5c(c3)C(=O)N(C3CCC(=O)NC3=O)C5)C4)sc2-c2ccnc(N)n2)c1F (racemic)", "Dmax", "> 70%"],
  ["CCCS(=O)(=O)Nc1cccc(-c2cn(-c3ccc(N4CCN(CC5CCN(c6ccc([C@@H]7CCC(=O)NC7=O)cc6)CC5)CC4)nc3)nc2-c2ccncc2)c1F", "Dmax", "> 70%"],
  ["CCCS(=O)(=O)Nc1cccc(-c2nc(C(C)(C)C)sc2-c2ccnc(Nc3ccc(N4CCN(CC5CCN(c6ccc(C7CCC(=O)NC7=O)cn6)CC5)CC4)cc3)n2)c1F (racemic)", "Dmax", "> 70%"],
  ["CCCS(=O)(=O)Nc1cccc(-c2nc(C(C)(C)C)sc2-c2ccnc(Nc3ccc(N4CCN(C(=O)C5CCN(c6ccc(C7CCC(=O)NC7=O)cn6)CC5)CC4)c(F)c3)n2)c1F (racemic)", "Dmax", "> 70%"],
  ["CCCS(=O)(=O)Nc1cccc(-c2nc(CCC3CCN(C(=O)C4CCN(C(=O)C5CCN(c6ccc(C7CCC(=O)NC7=O)cn6)CC5)CC4)CC3)sc2-c2ccnc(N)n2)c1F (racemic)", "Dmax", "> 70%"]
]}

Inquiry: Which Dmax value is on record for CCCS(=O)(=O)Nc1cccc(-c2nc(C(C)(C)C)sc2-c2ccnc(N[C@H]3CC[C@H](N4CCN(C(=O)C5CCN(c6ccc(C7CCC(=O)NC7=O)cn6)CC5)CC4)CC3)n2)c1F (mixture of isomers) ?
Reply text: 30 to 70%

Inquiry: Which Dmax value is on record for CCCS(=O)(=O)Nc1cccc(-c2nc(C(C)(C)C)sc2-c2ccnc(Nc3ccc(N4CCN(CC5CCN(c6ccc([C@H]7CCC(=O)NC7=O)cc6)CC5)CC4)c(F)c3)n2)c1F ?
Reply text: > 70%

Inquiry: Which Dmax value is on record for CCCS(=O)(=O)Nc1cccc(-c2cn(C3CCN(C(=O)C4CCN(C(=O)C5CCN(c6ccc(C7CCC(=O)NC7=O)cc6)CC5)CC4)CC3)nc2-c2ccncc2)c1F (racemic) ?
Reply text: > 70%

Inquiry: Which Dmax value is on record for CCCS(=O)(=O)Nc1cccc(-c2nc(C(C)(C)C)sc2-c2ccnc(Nc3ccc(C4CCN(C(=O)C[C@@H]5CCN(c6ccc(C7CCC(=O)NC7=O)cc6)C5)CC4)cc3)n2)c1F (mixture of isomers) ?
Reply text: 30 to 70%

Inquiry: Which Dmax value is on record for CCCS(=O)(=O)Nc1cccc(-c2nc(C3CCC4(CC3)CCN(C(=O)CN3CCC5(CC3)CN(c3ccc6c(c3)C(=O)N(C3CCC(=O)NC3=O)C6=O)C5)CC4)sc2-c2ccnc(N)n2)c1F (racemic) ?
Reply text: > 70%
